Reference source for all entries: PubChem BioAssay (NCI)

tested on: MDA-MB-468 breast; experiment: NCI tumour cell line growth inhibition, 48 h
property name: TGI (µM)
# unit: µM | format: bare number

A selection of reference data follows.
# smiles text, uom, TGI
measured = [
    ("c1cc2ccc3cc2cc1CNCCN1CCNCc2ccc4ccc(cc4c2)CNCCN(CCNC3)CCNCc2ccc3ccc(cc3c2)CNCC1", "µM", 4),
    ("O=c1c2sc3ccccc3c2nnn1-c1ccc(F)c(Cl)c1", "µM", 99.5),
]

Next:
Summary for this compound, `CCCOc1cc2c(cc1O)CC[C@@H]1[C@@H]2CC[C@]2(C)[C@@H](O)CC[C@@H]12` : TGI is 16.7
